- Test summary: Reducing activity determined by the use of stable radical alpha,alpha-di-phenyl-beta-picrylhydrazyl (DPPH)
- Parameters: concentration or dose not given beside the values
Property measured: Reducing activity (%)
Give just the number in %; leave the unit off.

Look over these answered cases.
// CCCCCCCCCCCCCCCCCCOC1=C(O)OC(CCO)C1=O (stereo unspecified) : Reducing activity value = 93.9

The value of Reducing activity measured for the molecule CCCCCCCCCCCCCCCCCCCCOC1=C(O)OC(C(O)CO)C1=O (stereo unspecified) turned out to be 95.3

For this molecule ( CCCCCCCCCCCCCCCCCCOC1=C(O)[C@@H](C(O)CO)OC1=O (stereo in doubt; 5k) ), measured Reducing activity is 95.4

Next:
// sample O=C1C(OCc2ccccc2)=C(O)OC1C(O)CO (stereo unspecified) , its Reducing activity was 93

Record CCCCCCCCCCCOC1=C(O)OC(C(O)CO)C1=O (stereo unspecified) . Reported Reducing activity: 94.6

Notebook: CCCCCCCCOC1=C(O)OC(C(O)CO)C1=O (stereo unspecified) , Reducing activity read as 93.9

---

- Species: Rattus norvegicus
- Test summary: Inhibition of lipid peroxidation was determined with rat brain tissue homogenates.
- Type: functional
Property measured: pIC50
The value called pIC50 is obtained by taking minus log10 of the concentration in mol/L.

// pIC50 value for CCCCCCCCCCCCCCCCCCOC1=C(O)[C@@H](C(O)CO)OC1=O (stereo in doubt; 8) : 5.01

---

- Tested on: Rattus norvegicus
- Test summary: Effect of AOS scavenger on ventricular fibrillation (VF),arrhythmias induced by ischemia-reperfusion in anesthetized rat, duration at 10 mg/kg
- Type: functional, Cardiac ventricle
Property measured: Duration (s)
State just the number; it will be interpreted in s.

Entry O=C1C(OCc2ccccc2)=C(O)OC1C(O)CO (centres undefined) , Duration reported as 79.9

New cases:
Quick note, Duration for CCCCCCCCCCCCCCCCCCOC1=C(O)[C@@H](C(O)CO)OC1=O (stereo in doubt; 5k) landed at 0.5

Data point: CCCCCCCCCCCCCCOC1=C(O)OC(C(O)CO)C1=O (centres undefined) ; Duration = 10.1

---

Readings of Reducing activity for the listed molecules
- Test summary: Reducing activity determined by the use of stable radical alpha,alpha-di-phenyl-beta-picrylhydrazyl (DPPH)
- Parameters: concentration or dose not given beside the values
Write the answer as a number in %, unit excluded.

For orientation, consider the following solved cases.
CCCCCCCCCCCCCCCOC1=C(O)OC(C(O)CO)C1=O (stereo not given) has a reported Reducing activity of 95.4

The molecule CCCCCCCCCCCCCCOC1=C(O)OC(C(O)CO)C1=O (stereo not given) showed Reducing activity equal to 95.4

Reported Reducing activity ( Cc1c(C)c2c(c(C)c1O)CC[C@@](C)(CCC[C@H](C)CCC[C@H](C)CCCC(C)C)O2 [ALPHA-TOCOPHEROL] ) = 72

Memo: CCCCCCCCCCCCCCCCCCOC1=C(O)C(=O)OC1C(O)CO (stereo not given) , reported Reducing activity: 94.5

Query molecule follows.
Field Reducing activity (entry CCCCCCCCCCCCCCCCCCCCCOC1=C(O)OC(C(O)CO)C1=O (stereo not given) ) reads 94.3
